Reference source: paper PMC11967820

Tested on: human red blood cells (HRBCs)
Particulars: 2% fresh human red blood cells in saline, 37 °C, 30 min, absorbance 540 nm; mean ± SD, n = 3
No end group written: not given here.
The following substances are shown together with reported MHC5, minimal hemolytic concentration that results in 5% human erythrocyte hemolysis values.
Express the result in µg/mL but write the number alone.

                   substance  value_reported
0  RLWRIVLIRRAK-NH2 [AFP‐10]           48.11

Enquiry: Provide the documented MHC5, minimal hemolytic concentration that results in 5% human erythrocyte hemolysis with human red blood cells (HRBCs) as the system for VRWRIRLIRKLA-NH2 [AFP‐13]
Return: 99.50

Enquiry: Provide the documented MHC5, minimal hemolytic concentration that results in 5% human erythrocyte hemolysis with human red blood cells (HRBCs) as the system for RLWRIVVIRRAR-NH2 [AFP‐8]
Return: 41.81

Enquiry: Provide the documented MHC5, minimal hemolytic concentration that results in 5% human erythrocyte hemolysis with human red blood cells (HRBCs) as the system for RLWRIVLIRKAR-NH2 [AFP‐11]
Return: 46.51

====

The following substances are shown together with reported TI, therapeutic index against C. albicans values.
System: human red blood cells (HRBCs)
Particulars: TI = MHC5/MIC100 (C. albicans)
No end group written: not given here.

Before answering, review these 3 worked examples.
>>> df
                   substance  value_reported
0  RLWRIVLIRRAK-NH2 [AFP‐10]           13.71
1  VRWRIRLIRKLA-NH2 [AFP‐13]           15.89
2  RLWRIVLIRKAR-NH2 [AFP‐11]            6.22

For the next question, use this substance.
Enquiry: Name the reported TI, therapeutic index against C. albicans value associated with the substance RLWRIVVIRRAR-NH2 [AFP‐8]
Return: 5.45
